- System: rodent lifetime carcinogenesis bioassay, tumor incidence TD50
- ASSAY DETAILS: carcinogenic potency in animals, long-term in vivo studies, CPDB compilation (AID 1745844)
- APPLIED CONDITIONS: mouse; strain B6C3F1; males; oral dosing; site: any site (literature study); lesion: several types; types named in the paper; dosed 76 weeks; study length 76 weeks
The source made the active and inactive calls. How the calls were made is not given here.
Record form. Attribute: TD50. Fill in for each entry.

1) CCN(CC)C(=S)[S-].CCN(CC)C(=S)[S-].[Zn+2] = 28.5 mg/kg/day (inactive)

Provide the reported TD50 of each entry below, same order.
1. CC(C)CCCCCOC(=O)COc1ccc(Cl)cc1Cl
2. S=C(SSSSSSC(=S)N1CCCCC1)N1CCCCC1
3. CCN(CC)C(=S)SSC(=S)N(CC)CC
4. CC(=O)C1C(=O)C=C(C)OC1=O (stereo not drawn)
5. CC(Oc1cc(Cl)ccc1Cl)C(=O)O (stereo not drawn)
6. CC(C)Oc1ccc(Nc2ccccc2)cc1
7. Cc1cc(OC(=O)N(C)C)n(C(C)C)n1
8. CN(C)C(=S)S[Se](SC(=S)N(C)C)(SC(=S)N(C)C)SC(=S)N(C)C

["17.7 mg/kg/day (inactive)", "52.5 mg/kg/day (inactive)", "17 mg/kg/day", "202 mg/kg/day (inactive)", "10.5 mg/kg/day (inactive)", "300 mg/kg/day (inactive)", "0.0413 mg/kg/day (inactive)", "5.88 mg/kg/day (inactive)"]

Provide the reported TD50 of each entry below, same order.
1. S=C([S-])NCCNC(=S)[S-].[Mn+2]
2. CCCCCCCCS(=O)C(C)Cc1ccc2c(c1)OCO2 (stereo not drawn)
3. O=S(=O)(Oc1ccc(Cl)cc1Cl)c1ccccc1
4. Clc1ccc(C(c2ccccc2Cl)C(Cl)Cl)cc1 (stereo not drawn)

1. 62.3 mg/kg/day (inactive)
2. 7.72 mg/kg/day
3. 218 mg/kg/day (inactive)
4. 38.5 mg/kg/day

---

- System: rodent lifetime carcinogenesis bioassay, tumor incidence TD50
- ASSAY DETAILS: carcinogenic potency in animals, long-term in vivo studies, CPDB compilation (AID 1745844)
- APPLIED CONDITIONS: mouse; strain B6C3F1; males; oral dosing; site: all sites; lesion: reticulum-cell sarcoma; dosed 79 weeks; study length 79 weeks
MEASURED METRIC: TD50

Which TD50 value belongs to C=C1C(C)(C)[C@@]2(Cl)C(Cl)[C@]1(Cl)C(Cl)(Cl)C2(Cl)Cl (stereo partly specified) ?
1.41 mg/kg/day

---

- System: rodent lifetime carcinogenesis bioassay, tumor incidence TD50
- ASSAY DETAILS: carcinogenic potency in animals, long-term in vivo studies, CPDB compilation (AID 1745844)
- APPLIED CONDITIONS: rat; strain Fischer 344; males; in feed; site: any site (literature study); lesion: several types; types named in the paper; dosed 59 weeks; study length 104 weeks
MEASURED METRIC: TD50 (mg/kg/day)
Answers are plain numbers, in mg/kg/day.

Which TD50 value belongs to CN(C)c1ccc(Cc2ccc(N(C)C)cc2)cc1 ?
42.9

---

- System: rodent lifetime carcinogenesis bioassay, tumor incidence TD50
- ASSAY DETAILS: carcinogenic potency in animals, long-term in vivo studies, CPDB compilation (AID 1745844)
- APPLIED CONDITIONS: rat; strain F344/DuCrj; males; in drinking water; site: adrenal medulla; lesion: pheochromocytoma, malignant; dosed 104 weeks; study length 108 weeks
MEASURED METRIC: TD50

Which TD50 value belongs to CC(=O)OC/C=C(C)/C=C/C=C(C)/C=C/C1=C(C)CCCC1(C)C ?
552 mg/kg/day

---

- Test system: rodent lifetime carcinogenesis bioassay, tumor incidence TD50
- ASSAY DETAILS: carcinogenic potency in animals, long-term in vivo studies, CPDB compilation (AID 1745844)
- APPLIED CONDITIONS: mouse; strain B6C3F1; males; inhaled; site: forestomach; lesion: squamous-cell carcinoma; dosed 80 weeks; study length 96 weeks
MEASURED METRIC: TD50 (mg/kg/day)
Answers are plain numbers, in mg/kg/day.

Which TD50 value belongs to C=CC(=C)C ?
25800

---

- Test system: rodent lifetime carcinogenesis bioassay, tumor incidence TD50
- ASSAY DETAILS: carcinogenic potency in animals, long-term in vivo studies, CPDB compilation (AID 1745844)
- APPLIED CONDITIONS: rat; strain Fischer 344; males; in feed; site: preputial gland; lesion: adenoma, NOS + carcinoma, NOS + cystadenoma, NOS + papillary adenoma; dosed 78 weeks; study length 107 weeks
MEASURED METRIC: TD50

So what TD50 did COc1ccc(N)cc1N get with rodent lifetime carcinogenesis bioassay, tumor incidence TD50?
351 mg/kg/day

---

- Tested on: rodent lifetime carcinogenesis bioassay, tumor incidence TD50
- ASSAY DETAILS: carcinogenic potency in animals, long-term in vivo studies, CPDB compilation (AID 1745844)
- APPLIED CONDITIONS: rat; strain Fischer 344; females; in drinking water; site: all sites; lesion: one or several types; types not named; dosed 30 weeks; study length 115 weeks
MEASURED METRIC: TD50

Which TD50 value belongs to CCN(C)N=O ?
0.0386 mg/kg/day

---

- System: rodent lifetime carcinogenesis bioassay, tumor incidence TD50
- ASSAY DETAILS: carcinogenic potency in animals, long-term in vivo studies, CPDB compilation (AID 1745844)
- APPLIED CONDITIONS: rat; strain Fischer 344; females; in drinking water; site: pituitary gland; lesion: pars distalis adenoma; dosed 98 weeks; study length 104 weeks
MEASURED METRIC: TD50 (mg/kg/day)
Give bare numbers, in mg/kg/day.

Which TD50 value belongs to Cc1ccc(S(=O)(=O)Oc2ccc(N=Nc3ccc(-c4ccc(N=Nc5c(O)ccc6cc(S(=O)(=O)O)cc(S(=O)(=O)O)c56)c(C)c4)cc3C)cc2)cc1 ?
11.1

---

- System: rodent lifetime carcinogenesis bioassay, tumor incidence TD50
- ASSAY DETAILS: carcinogenic potency in animals, long-term in vivo studies, CPDB compilation (AID 1745844)
- APPLIED CONDITIONS: rat; strain Sprague-Dawley; females; by gavage; site: stomach; lesion: several types; types named in the paper; dosed 107 weeks; study length 150 weeks
MEASURED METRIC: TD50

So what TD50 did C1CO1 get with rodent lifetime carcinogenesis bioassay, tumor incidence TD50?
7.43 mg/kg/day

---

- Tested on: rodent lifetime carcinogenesis bioassay, tumor incidence TD50
- ASSAY DETAILS: carcinogenic potency in animals, long-term in vivo studies, CPDB compilation (AID 1745844)
- APPLIED CONDITIONS: rat; strain Fischer 344; females; by gavage; site: esophagus; lesion: squamous-cell carcinoma; dosed 43 weeks; study length 90 weeks
MEASURED METRIC: TD50 (mg/kg/day)
Numbers only, in mg/kg/day.

Which TD50 value belongs to CC1SC(C)N(N=O)C(C)S1 (stereo unspecified) ?
1.63

---

- System: rodent lifetime carcinogenesis bioassay, tumor incidence TD50
- ASSAY DETAILS: carcinogenic potency in animals, long-term in vivo studies, CPDB compilation (AID 1745844)
- APPLIED CONDITIONS: rat; strain Fischer 344; females; by gavage; site: any site (literature study); lesion: several types; types named in the paper; dosed 103 weeks; study length 104 weeks
The source made the active and inactive calls. No rule for the calls is given here.
MEASURED METRIC: TD50

Record excerpt, results attached:
1. Oc1ccc(O)cc1 = 51.6 mg/kg/day
2. Nc1ccc(O)c(N)c1 = 46.3 mg/kg/day (inactive)
3. S=[Se] = 19.3 mg/kg/day

Provide the reported TD50 of each entry below, same order.
1. CC(O)c1ccccc1 (stereo unspecified)
2. c1ccoc1
3. S=c1[nH]c2ccccc2s1

["826 mg/kg/day", "2.83 mg/kg/day", "576 mg/kg/day"]

Provide the reported TD50 of each entry below, same order.
1. CC(I)C1OCC(CO)O1 (stereo unspecified)
2. Cc1cccc(C)c1

["214 mg/kg/day (inactive)", "1930 mg/kg/day"]

Provide the reported TD50 of each entry below, same order.
1. OC[P+](CO)(CO)CO
2. CCCN(CCC)S(=O)(=O)c1ccc(C(=O)O)cc1
3. OCc1ccccc1

1. 4.78 mg/kg/day (inactive)
2. 1540 mg/kg/day (inactive)
3. 885 mg/kg/day (inactive)

---

- System: rodent lifetime carcinogenesis bioassay, tumor incidence TD50
- ASSAY DETAILS: carcinogenic potency in animals, long-term in vivo studies, CPDB compilation (AID 1745844)
- APPLIED CONDITIONS: rat; strain Fischer 344; males; in drinking water; site: nervous system; lesion: one or several types; types not named; dosed 30 weeks; study length 104 weeks
MEASURED METRIC: TD50

Record excerpt, results attached:
1) CCN(N=O)C(=O)NCCO = 0.769 mg/kg/day
2) CCN(N=O)C(=O)NCC(C)=O = 0.127 mg/kg/day

Provide the reported TD50 of each entry below, same order.
1. CC(=O)CN(N=O)C(=O)NCCCl
2. CCNC(=O)N(CCO)N=O

1. 3.14 mg/kg/day
2. 0.754 mg/kg/day
